tested on: Vero E6 infected with SARS-CoV-2; test: inhibition of SARS-CoV-2 cytopathic effect; higher = more antiviral protection, active = above 15; conditions: 100 nM; 48 h
property: inhibition of SARS-CoV-2 cytopathic effect

compound=Clc1ccccc1C(c1ccccc1)(c1ccccc1)n1cccn1 system="Vero E6 infected with SARS-CoV-2" recorded_measurement="-0.74% (inactive)"
compound="c1ccc(-c2ccc(C(c3ccccc3)n3ccnc3)cc2)cc1 (centres undefined)" system="Vero E6 infected with SARS-CoV-2" recorded_measurement="4.39% (inactive)"
compound=Clc1cccc(Cl)c1NC1=NCCN1 system="Vero E6 infected with SARS-CoV-2" recorded_measurement="-3.01% (inactive)"
compound="CC(=O)OCC(=O)[C@@]12OC3(CCCC3)O[C@@H]1C[C@H]1[C@@H]3CCC4=CC(=O)C=C[C@]4(C)[C@@]3(F)[C@@H](O)C[C@@]12C [amcinonide]" system="Vero E6 infected with SARS-CoV-2" recorded_measurement="-1.46% (inactive)"
compound="CC(=O)[O][Hg][c]1ccccc1 [phenylmercuric-acetate]" system="Vero E6 infected with SARS-CoV-2" recorded_measurement="-0.22% (inactive)"
compound=N=C(N)NC(=N)NCCc1ccccc1 system="Vero E6 infected with SARS-CoV-2" recorded_measurement="-2.7% (inactive)"
compound=CN1C(=O)N(c2cc(Cl)cc(Cl)c2)C(=O)[C@]12CN(Cc1cc(C(=O)O)cs1)C[C@H]2c1ccc(C#N)cc1 system="Vero E6 infected with SARS-CoV-2" recorded_measurement="1.44% (inactive)"
compound=CN(CCOc1ccc(-c2ccc3c(c2)OCO3)cc1C(C)(C)C)CC(=O)O system="Vero E6 infected with SARS-CoV-2" recorded_measurement="-6.89% (inactive)"

inhibition of SARS-CoV-2 cytopathic effect for CS(=O)(=O)c1ccc(Oc2cc(F)cc(C#N)c2)c2c1[C@H](O)C(F)(F)C2 ?
0.38% (inactive)

* * *

tested on: Vero E6 infected with SARS-CoV-2; assay: inhibition of SARS-CoV-2 cytopathic effect; higher = more antiviral protection, active = above 15; settings: 100 nM; 48 h
property: inhibition of SARS-CoV-2 cytopathic effect (%)
Write it as a number; the unit % goes unstated.

compound="CCCN(CCC)C(=O)C(CCC(=O)O)NC(=O)c1ccccc1 (stereo unspecified) [proglumide]" system="Vero E6 infected with SARS-CoV-2" recorded_measurement=-0.81
compound=O=S(=O)(N[C@H](CO)C(C(F)(F)F)C(F)(F)F)c1ccc(Cl)s1 system="Vero E6 infected with SARS-CoV-2" recorded_measurement=-1.3
compound=O=C(c1c2ccccc2cc2ccccc12)N1CCC(N2CCC[C@@H](C(=O)N3CCOCC3)C2)CC1 system="Vero E6 infected with SARS-CoV-2" recorded_measurement=-0.31
compound=Cc1ccc(/C(=C\CN2CCCC2)c2cccc(/C=C/C(=O)O)n2)cc1 system="Vero E6 infected with SARS-CoV-2" recorded_measurement=0.75
compound=O=C(O[C@H]1C[N+]2(CCCOc3ccccc3)CCC1CC2)C(O)(c1cccs1)c1cccs1 system="Vero E6 infected with SARS-CoV-2" recorded_measurement=-2.4
compound=CC(C)c1ccc(NC(=O)Cn2cnc3c2c(=O)n(C)c(=O)n3C)cc1 system="Vero E6 infected with SARS-CoV-2" recorded_measurement=1.39

Form: Entry = Cc1ccc(-n2nc(C(C)(C)C)cc2NC(=O)NCc2cc(F)ccc2Oc2ccc3c(cnn3CCO)c2)cc1 | System = Vero E6 infected with SARS-CoV-2 | inhibition of SARS-CoV-2 cytopathic effect = ____
0.01

Form: Entry = CN1C[C@@H](NS(=O)(=O)N(C)C)C[C@@H]2c3cccc4c3c(cn4C)C[C@H]21 | System = Vero E6 infected with SARS-CoV-2 | inhibition of SARS-CoV-2 cytopathic effect = ____
0.56

Form: Entry = CCC[C@@]1(CCc2ccccc2)CC(O)=C([C@H](CC)c2cccc(NS(=O)(=O)c3ccc(C(F)(F)F)cn3)c2)C(=O)O1 | System = Vero E6 infected with SARS-CoV-2 | inhibition of SARS-CoV-2 cytopathic effect = ____
1.56

Form: Entry = Cc1cccc(NC(=O)c2ccc(C(F)(F)F)cc2C(=O)O)n1 | System = Vero E6 infected with SARS-CoV-2 | inhibition of SARS-CoV-2 cytopathic effect = ____
1.41

Form: Entry = OCCCNc1cc(-c2ccnc(Nc3cccc(Cl)c3)n2)ccn1 | System = Vero E6 infected with SARS-CoV-2 | inhibition of SARS-CoV-2 cytopathic effect = ____
1.6

* * *

tested on: Vero E6 infected with SARS-CoV-2; assay: SARS-CoV-2 infection rate relative to infected DMSO; higher = more infection, active = 60 or less; conditions: 24 h
property: SARS-CoV-2 infection rate (%)
Write it as a number; the unit % goes unstated.

Consider the following illustrative entries.
compound="C[C@@H]1O[C@@H]1P(=O)(O)O (10 µM)" system="Vero E6 infected with SARS-CoV-2" unit_abbreviation=% recorded_measurement=104
compound="Oc1cc2c(cc1O)[C@H](Cc1cccc3ccccc13)NCC2 (10 µM)" system="Vero E6 infected with SARS-CoV-2" unit_abbreviation=% recorded_measurement=119
compound="CCNC(=O)/C=C/c1cccc(Br)c1 [cinromide] (10 µM)" system="Vero E6 infected with SARS-CoV-2" unit_abbreviation=% recorded_measurement=96

SARS-CoV-2 infection rate for O=C(Nc1cnccc1Cl)N1CCN(Cc2ccc3c(c2)OC(F)(F)O3)CC1 (10 µM) ?
106

SARS-CoV-2 infection rate for Cc1c(N2C(=O)[C@@H]3[C@H](O)CCN3C2=O)ccc(C#N)c1Cl (10 µM) ?
91.5

* * *

system: Vero E6 infected with SARS-CoV-2; experiment: SARS-CoV-2 infection rate relative to infected DMSO; higher = more infection, active = 60 or less; conditions: 24 h
Entries annotated with measured SARS-CoV-2 infection rate
Write it as a number; the unit % goes unstated.

Consider the following illustrative entries.
compound="COc1ccc(O)c(C(C)(C)C)c1.COc1ccc(O)cc1C(C)(C)C [butylated-hydroxyanisole] (10 µM)" unit_abbreviation=% recorded_measurement=116
compound="CC(C)C[C@@H]1NC(=O)[C@@H](C(C)C)NC(=O)[C@@H]2CCCN2C(=O)[C@@H](CC(=O)O)NC(=O)[C@@H](Cc2c[nH]c3ccccc23)NC1=O (10 µM)" unit_abbreviation=% recorded_measurement=103
compound="COc1cc(NC(C)CCCN)c2ncccc2c1 (configuration not stated) [primaquine] (10 µM)" unit_abbreviation=% recorded_measurement=76.5

SARS-CoV-2 infection rate for CCCN[C@@H]1CCc2c(OC)cccc2[C@@H]1C (10 µM) ?
100

SARS-CoV-2 infection rate for Cc1cc(Nc2nc(N[C@@H](C)c3ncc(F)cn3)ncc2Cl)[nH]n1 (10 µM) ?
108

SARS-CoV-2 infection rate for Cc1cnc(CNC(=O)c2c(=O)c3ccc(N4CCCN(C)CC4)nc3n3c2sc2ccccc23)cn1 (0.833333 µM) ?
109

SARS-CoV-2 infection rate for CC(=O)Nc1ccc(OC(C)=O)cc1 [diacetamate] (10 µM) ?
99.5

SARS-CoV-2 infection rate for CC(SC(=O)c1cccs1)C(=O)NCC(=O)O (configuration not stated) [stepronin] (10 µM) ?
113

SARS-CoV-2 infection rate for Cc1ccccc1C(=O)Nc1ccc(C(=O)N2CCCC(N(C)C)c3ccccc32)cc1 (configuration not stated) [mozavaptan] (0.833333 µM) ?
117

SARS-CoV-2 infection rate for COc1cc(NS(=O)(=O)c2ccc(N)cc2)ncn1 [sulfamonomethoxine] (10 µM) ?
89.5

SARS-CoV-2 infection rate for CC1(C)CCC(C)(C)c2cc(C3(c4ccc5cc(C(=O)O)ccc5c4)SCCS3)ccc21 (10 µM) ?
98

SARS-CoV-2 infection rate for NCc1cc(O)no1 [muscimol] (10 µM) ?
111

SARS-CoV-2 infection rate for c1cncc(CN2CCC(n3ncc4c(N5CCOCC5)nc(-c5ccc6[nH]ccc6c5)nc43)CC2)c1 (0.833333 µM) ?
69

SARS-CoV-2 infection rate for CC(C)(Oc1ccc(C2CC2(Cl)Cl)cc1)C(=O)O (configuration not stated) [ciprofibrate] (10 µM) ?
109

SARS-CoV-2 infection rate for CCC(C)(C)C(=O)C(=O)N1CCC[C@H]1C(=O)OCCCc1cccnc1 (10 µM) ?
116

SARS-CoV-2 infection rate for CCc1c(C(=O)C(N)=O)c2c(OCC(=O)O)cccc2n1Cc1ccccc1 [varespladib] (10 µM) ?
108

SARS-CoV-2 infection rate for COC[C@@H](c1ccc(C(F)(F)F)cc1)N1CCN(C2(C)CCN(C(=O)c3c(C)ncnc3C)CC2)C[C@@H]1C [vicriviroc] (10 µM) ?
100

* * *

system: Vero E6 infected with SARS-CoV-2; test: inhibition of SARS-CoV-2 cytopathic effect; higher = more antiviral protection, active = above 15; conditions: 833.33 nM; 48 h
property: inhibition of SARS-CoV-2 cytopathic effect (%)
Write it as a number; the unit % goes unstated.

inhibition of SARS-CoV-2 cytopathic effect for CNC(=O)[C@@H](c1ccccc1)N1CCc2cc(OC)c(OC)cc2[C@@H]1CCc1ccc(C(F)(F)F)cc1 ?
1.95
